test: Oral pharmacokinetics in whole blood of 8HUM mice; format: in vivo, mouse; settings: female, 8HUM, mouse, whole blood, po
measured endpoint: Tmax (h)

1 = C=C[C@H]1C[N@@]2CC[C@H]1C[C@H]2[C@H](O)c1ccnc2ccc(OC)cc12
2 = OC(c1cc(C(F)(F)F)nc2c(C(F)(F)F)cccc12)C1CCCCN1 (centres unmarked)
Task: Returns: the argument ( 1 or 2 ) having the larger Tmax. Pick one; state its label.
Output: 1

###

experiment: Oral pharmacokinetics in whole blood of WT mice; assay type: in vivo; settings: female, mouse, whole blood and plasma, oral; WT mice; blood and plasma samples from same animals at identical timepoints; read-out: B/P (blood-to-plasma ratio)
measured endpoint: blood plasma ratio
Just the number, please.

In plain terms, OC(c1cc(C(F)(F)F)nc2c(C(F)(F)F)cccc12)C1CCCCN1 (stereo not shown) has a documented blood plasma ratio of 1.44
